Tested on: SW-620 colon
method-description: NCI-60 one-dose screen, 48 h (100 = growth as untreated, 0 = no growth, -100 = all killed)
stated-conditions: 10 µM
The panel holds about 83,000 compounds, 20% with a hit somewhere; the sample as a whole holds those more often.

molecule	growth / %
NS(=O)(=O)Oc1ccc2c(ccn2C(=O)C23CC4CC(CC(C4)C2)C3)c1	103
C1CN(CC2CCC(CN3CCOCC3)O2)CCO1 (configuration not stated)	92.2
Cc1cc(Br)nnc1Br	109
CCOC(=O)CN(c1sc(C)c(C)c1C(=O)OCC)S(=O)(=O)c1ccc(C)cc1	100
O=C(N/N=C/c1ccc(Cl)cc1)c1ccc(Cc2n[nH]c(=O)c3cccnc23)cc1	113
COc1cc2ncnc(NC3CCC(O)CC3)c2cc1OC (configuration not stated)	101
CCOC(=O)c1cc(C(=O)c2cc(OC)c(OC)c(OC)c2)n2c1ccc1c3cccnc3ccc12	23.6
C/C=C/C1=CN2C(=O)c3cc(OC4OC(C)C(NC)C(C)(O)C4O)c(C)c(O)c3N=C[C@@H]2C1 (some centres not stated)	-14.9
COc1ccc(-c2nc(-c3nc4ccc(C)cc4[nH]3)cc3c2[nH]c2ccccc23)cc1	81.4
O=C1/C=C/[C@@H](O)[C@@H]2C[C@@H](O)C[C@H]2/C=C/CCC[C@H](C(F)(F)F)O1	-23.1
COc1ccc(C(=O)c2cc3c(OC)c(OC)c(OC)cc3[nH]2)cc1	33.9
CCOC(=O)c1cc(C(=O)c2cc(OC)cc(OC)c2)n2nc(C)ccc12	17.8
